Molecular target: T1, APC5383-AA
T1 chain: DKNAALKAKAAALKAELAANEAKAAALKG
Assay: two-hybrid library CCmax;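 also: natural log of median RNA to DNA barcode read ratio; higher means stronger binding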
Details: mean of both orientations
measurement-name: interaction score
Lab note: record the figure alone, no unit after it.

q: Value lookup for interaction score; key = DEAAALEAEAAALEAKAAALKAKLAAEKG [APC2237-AA]
a: -1.52

q: Value lookup for interaction score; key = DKAAALKAELAAEEAENAALEAKNAALKG [APC3645-AA]
a: -1.51

q: Value lookup for interaction score; key = DEAAALEAENAALEAELAAIEAKNAALKG [APC2405-AA]
a: -1.52

q: Value lookup for interaction score; key = DKIAALEAKNAALEAEIAALKAKNAALEG [4H2447-AA]
a: -1.8
